Test: Comment Code material properties: vapor pressure, ClogP, probability of ingredient color instability, odor detection threshold, melamine formaldehyde PMC headspace response ratio and leakage, liquid dish neat product liquid-air partition coefficient
Assay type: physicochemical
Settings: cell strings several class symbols together; each letter is one property class of L1

| COMPOUND | Comment Code |
| --- | --- |
| CC(=O)O.CCOc1cc(C=O)ccc1O [Material 379] | CHJ |
| O=Cc1ccc2c(c1)OCO2 [Material 287] | BCGIK |
| C=CC1(C)Cc2occ(C)c2CC1C(=C)C (stereo not drawn) [Material 488] | DHJK |

* * *

Experiment: Comment Code material properties: vapor pressure, ClogP, probability of ingredient color instability, odor detection threshold, melamine formaldehyde PMC headspace response ratio and leakage, liquid dish neat product liquid-air partition coefficient
Type: physicochemical
Conditions: Table 1 materials; each letter of the code is one property class (vapor pressure, ClogP, color instability, odor detection threshold, PMC headspace ratio, PMC leakage, liquid dish liquid-air partition coefficient)
READOUT: Comment Code

| MOLECULE | RESULT |
| --- | --- |
| O=C(/C=C/c1ccccc1)OCc1ccccc1 [Material 650] | DHJ |
| CC(C)=C1CCC(C)C2=C(C1)C(C)CC2 (stereo not drawn) [Material 626] | DEFHJKL |
| CC(C)=CCCC(C)=C1CC=C(C)CC1 [Material 608] | DEFHJK |
| C=C1C2CCC(C2)C1(C)CCC=C(C)CO (stereo not drawn) [Material 616] | DEFHJK |
| CC/C(=C/CC1CC=C(C)C1(C)C)CO (stereo not drawn) [Material 1024] | DEFHJK |
| CCCC(=O)OCCc1ccccc1 [Material 831] | DEFHJK |

Report Comment Code, nothing else, for this molecule: CCCCCCCCCC=O [Material 584] ADHKL

Return Comment Code (reported value) for this molecule: CCCCCCCCCCCC(=O)OCc1ccccc1 [Material 644] DEFHJ

Answer with the recorded Comment Code of CC1=CC2C(CC1)C(C)=CCC2C(C)C (stereo not drawn) [Material 698] only. DEFHJKL
